We begin with a simple list: items and their reported growth.
# Tested on: HCC-2998 colon
# assay.protocol: NCI-60 one-dose screen, 48 h (100 = growth as untreated, 0 = no growth, -100 = all killed)
# measurement.setup: 10 µM unless noted
The panel holds about 83,000 compounds, 20% with a hit somewhere; the sample as a whole holds those more often.
quantity.name: growth (%)

[[record]]
compound = "C=CC1CN2CCC1CC2C(O)c1ccnc2ccc(OC)cc12 (stereo not given)"
quantitative_readout = 155

[[record]]
compound = "CCCC(=O)Nc1ccccc1C(=O)O"
quantitative_readout = 97.9

[[record]]
compound = "COc1cc2ncnc(-n3ncc4cc(NC(=O)Nc5ccc(Cl)c(C)c5)ccc43)c2cc1OC"
quantitative_readout = 100

[[record]]
compound = "O=C(Nc1cccc(Cn2c(=O)[nH]c3ccc(Oc4ncccn4)cc3c2=O)c1)c1cccc(F)c1"
quantitative_readout = 92.5

[[record]]
compound = "CC(C)OC(=O)c1ccc2n1CCCc1cnc(Nc3ccccc3)nc1-2"
quantitative_readout = 104

[[record]]
compound = "c1ccc2[nH]c(-c3ccc(OCCCCCOc4ccc(-c5nc6ccccc6[nH]5)cc4)cc3)nc2c1"
quantitative_readout = 14.8

[[record]]
compound = "COc1ccccc1Nc1nnc(COc2ccc(CNC(=O)CCCC/C=C/C(C)C)cc2OC)o1"
quantitative_readout = 105

[[record]]
compound = "COC(=O)C(C)[C@H]1CC[C@@H]2[C@]1(C)CC=C1[C@]23C=C[C@]2(C[C@@H](OC(C)=O)CC[C@]12C)C(C(=O)OC)C3C(=O)OC (stereo not given in full)"
quantitative_readout = 91.4

[[record]]
compound = "Cc1cc2c(-c3nc4ccccc4[nH]3)c(O)c(O)cc2c(O)c1-c1c(C)cc2c(-c3nc4ccccc4[nH]3)c(O)c(O)cc2c1O"
quantitative_readout = 19.5

[[record]]
compound = "Cn1c2ccccc2c2ccccc21"
quantitative_readout = 110


###

# System: RXF 393 renal
# assay.protocol: NCI-60 one-dose screen, 48 h (100 = growth as untreated, 0 = no growth, -100 = all killed)
# measurement.setup: 10 µM unless noted
About 83,000 compounds went through this panel and 20% of them were active in at least one assay; those are over-represented in the sample as a whole.
We begin with a simple list: items and their reported growth.
quantity.name: growth (%)

[[record]]
compound = "O=C(O)c1ccc(-c2nn(-c3ccc(C(=O)O)cc3)cc2CNc2ccc(Br)cc2)cc1"
assay_system = "RXF 393 renal"
quantitative_readout = 111

[[record]]
compound = "COC(=O)[C@@H]1[C@H](O)[C@H](C)[C@H](O)[C@H](C)/C=C\\C=C(C)C(=O)Nc2c(C)c(OC(C)=O)c3c(c2O)C(=O)C(C)=C2OCOC(=C23)C(C)=C[C@@](C)(O)[C@H](O)[C@@H](C)[C@H]1OC(C)=O"
assay_system = "RXF 393 renal"
quantitative_readout = 106

[[record]]
compound = "CCOC(=O)C1=NN(c2ccccc2)C2=NC(=O)/C(=C\\c3cn(-c4ccccc4)nc3-c3cc4ccccc4o3)C(=O)N12"
assay_system = "RXF 393 renal"
quantitative_readout = 124

[[record]]
compound = "COc1ccccc1Nc1nnc(COc2ccc(CNC(=O)CCCC/C=C/C(C)C)cc2OC)o1"
assay_system = "RXF 393 renal"
quantitative_readout = 103

[[record]]
compound = "Ic1ccc(SSc2ccc(I)cc2)cc1"
assay_system = "RXF 393 renal"
quantitative_readout = 99.7

[[record]]
compound = "O=C(O)CS(=O)c1ccc(Cl)cc1 (centres undefined)"
assay_system = "RXF 393 renal"
quantitative_readout = 103

[[record]]
compound = "Cc1cc2c(-c3nc4ccccc4[nH]3)c(O)c(O)cc2c(O)c1-c1c(C)cc2c(-c3nc4ccccc4[nH]3)c(O)c(O)cc2c1O"
assay_system = "RXF 393 renal"
quantitative_readout = -8.07

[[record]]
compound = "CCCCCSc1ccc2nc(NC(=O)OCCC)sc2c1"
assay_system = "RXF 393 renal"
quantitative_readout = 28.8

[[record]]
compound = "Clc1ccc(N/N=C/c2ccccn2)nc1"
assay_system = "RXF 393 renal"
quantitative_readout = 16.2

